Cited source for all entries: the supplement of paper PMC13380429

Listed next: entries and their corresponding cell viability.
# Test system: Caco-2
# Protocol notes: cell viability relative to DMSO; higher = less toxic
# Conditions: 72 h; 10 nM

[[record]]
compound = "CN1CCN(c2cccc(Nc3nc4c(-c5ccc(S(C)(=O)=O)cc5)cccn4n3)c2)CC1"
property_label = "cell viability"
measurement = "95.2%"

[[record]]
compound = "CCOC(=O)[C@H](C)C[C@@H](Cc1ccc(-c2ccccc2)cc1)NC(=O)CCC(=O)O"
property_label = "cell viability"
measurement = "95.3%"

[[record]]
compound = "COC1=C[C@@H]2[C@@H]3Cc4ccc(OC)c(O)c4[C@]2(CCN3C)CC1=O"
property_label = "cell viability"
measurement = "96.9%"


Fill in: cell viability of O=C(O)COc1cccc(CN(Cc2ccc(-n3cccn3)cc2)S(=O)(=O)c2cccnc2)c1 is ___
102%

Fill in: cell viability of C[C@@H]1C/C=C/C=C/C=C/C=C/[C@H](O[C@@H]2O[C@H](C)[C@@H](O)[C@H](N)[C@@H]2O)C[C@@H]2O[C@](O)(C[C@@H](O)C[C@H]3O[C@@H]3/C=C/C(=O)O1)C[C@H](O)[C@H]2C(=O)O is ___
103%

Fill in: cell viability of CCN(CC)Cc1nccn1-c1ccc([N+](=O)[O-])cc1C(=O)c1ccccc1Cl is ___
92.8%

Fill in: cell viability of CC(C)(C)C(=O)C(Oc1ccc(Cl)cc1)n1ccnc1 (stereo not drawn) is ___
100%

====

# Test system: Calu-3
# Protocol notes: cell viability relative to DMSO; higher = less toxic
# Conditions: 72 h; 1000 nM
Listed next: entries and their corresponding cell viability.
Number only, in %; omit the unit.

Query the reported cell viability for Calu-3; item: Nc1c(S(=O)(=O)O)cc(Nc2cccc3ccccc23)c2c1C(=O)c1ccccc1C2=O
101

Query the reported cell viability for Calu-3; item: C[C@@H]1CN(CC(=O)Nc2ccc3c(c2)Cc2cccc(-c4cc(=O)cc(N5CCOCC5)o4)c2S3)C[C@H](C)O1
105

Query the reported cell viability for Calu-3; item: O=C1Nc2cc(Cl)c(Cl)cc2N2CCNC[C@H]12
97.7

Query the reported cell viability for Calu-3; item: O=C(O)c1ccc(NC(=O)[C@H](Cc2ccc(O)cc2)NC(=O)c2ccccc2)cc1 [bentiromide]
95.4

Query the reported cell viability for Calu-3; item: C/C=C(/C(=C/C)c1ccc(O)cc1)c1ccc(O)cc1 [dienestrol]
84

Query the reported cell viability for Calu-3; item: Cc1cccc(C)c1NC(=O)CN1CCCC1=O [nefiracetam]
108

Query the reported cell viability for Calu-3; item: Cc1cccc(C)c1-n1c(=O)c2cnc(Nc3ccc(N4CCN(C)CC4)cc3)nc2n2c3ccccc3nc12 [TC-S-7003]
70.5

Query the reported cell viability for Calu-3; item: CCCCCCCCC(=O)NCc1cc(OC)c(O)cc1I [6-iodo-nordihydrocapsaicin]
109

Query the reported cell viability for Calu-3; item: CC[N+](CC)(CC)CC(=O)Nc1c(C)cccc1C [QX-314]
96.9

Query the reported cell viability for Calu-3; item: Cc1noc(C)c1-c1ccc(-c2cc(C(N)=O)c(NC(N)=O)s2)c(O[C@H]2CCNC2)c1 [AZD3264]
101

Query the reported cell viability for Calu-3; item: O=C(O)/C=C/c1ccc(O)c(O)c1 [caffeic-acid]
95

Query the reported cell viability for Calu-3; item: NC(=O)CN1CC[C@@H](NC(=O)[C@@H]2CCCN2)C1=O [PAOPA]
94.2
